Numbers sourced from ChEMBL document CHEMBL2448688.

test_details: in vitro
condition_description: mouse, microsomes
microsomal CLint overview

[
  {
    "smiles": "CO/N=C(\\C)c1ccc(-n2ccnc2)c(NC(=O)c2cnc(-c3ccccc3)cn2)c1",
    "display_unit": "µL/min/mg",
    "microsomal CLint": 29
  },
  {
    "smiles": "CO/N=C(\\C)c1ccc(-n2ccnc2)c(NC(=O)c2ccc(-c3ccccc3)nc2)c1",
    "display_unit": "µL/min/mg",
    "microsomal CLint": 33
  },
  {
    "smiles": "CO/N=C(\\C)c1ccc(-n2ccnc2)c(NC(=O)c2cnc(-c3ccccc3)nc2)c1",
    "display_unit": "µL/min/mg",
    "microsomal CLint": 34
  }
]

----------
test_details: DNDI: Lipophilicity (gLogD) at pH 7.4
condition_description: buffer, pH 7.4, logD
Please assign FALSE whenever chromatographic logD is at or above 3, and TRUE whenever it is below.

[
  {
    "molecule": "Cl.NCC(=O)N(Cc1cccnc1)c1cc(F)cc(-c2nc3ccccc3s2)c1",
    "label_value": "TRUE"
  },
  {
    "molecule": "CCN(Cc1cccnc1)c1cccc(-c2nc3ccccc3s2)c1",
    "label_value": "FALSE"
  },
  {
    "molecule": "CO/N=C(\\C)c1ccc(-n2ccnc2)c(NC(=O)c2cnc(-c3ccccn3)s2)c1",
    "label_value": "TRUE"
  },
  {
    "molecule": "CS(=O)(=O)N(Cc1cnc[nH]1)c1ccc(-c2nc3ccccc3s2)cc1",
    "label_value": "TRUE"
  },
  {
    "molecule": "CO/N=C(\\C)c1ccc(-n2ccnc2)c(NC(=O)c2ccc(-c3ccccc3)cc2)c1",
    "label_value": "FALSE"
  },
  {
    "molecule": "O=c1c2ccccc2nc(-c2ccc(-c3ccccc3)cc2)n1Cc1cccnc1",
    "label_value": "FALSE"
  },
  {
    "molecule": "CO/N=C(\\C)c1ccc(-n2ccnc2)c(NC(=O)c2cnc(-c3ccccc3)cn2)c1",
    "label_value": "FALSE"
  },
  {
    "molecule": "CCN(c1ccccc1)S(=O)(=O)c1ccc(Cl)c(NC(=O)CNC2CCCN(C)C2)c1.O=CO (stereo unspecified)",
    "label_value": "TRUE"
  },
  {
    "molecule": "CC(C)Cc1ccc(-n2ccnc2)c(NC(=O)c2cnc(-c3ccccc3)s2)c1",
    "label_value": "FALSE"
  },
  {
    "molecule": "Cc1ccc(-n2ccnc2)c(NC(=O)c2cnc(-c3ccccc3)nc2)c1",
    "label_value": "TRUE"
  },
  {
    "molecule": "CS(=O)(=O)c1ccc(-n2ccnc2)c(NC(=O)c2cnc(-c3ccccc3)nc2)c1",
    "label_value": "TRUE"
  },
  {
    "molecule": "O=C(C1CC1)N(Cc1cccnc1)c1cccc(-c2nc3ccccc3s2)c1",
    "label_value": "FALSE"
  },
  {
    "molecule": "CC(=O)N(Cc1c[nH]cn1)c1ccc(-c2nc3ccccc3s2)cc1",
    "label_value": "TRUE"
  },
  {
    "molecule": "CO/N=C(\\C)c1ccc(-n2ccnc2)c(NC(=O)c2cncc(-c3ccccc3)n2)c1",
    "label_value": "FALSE"
  },
  {
    "molecule": "CO/N=C(\\C)c1ccc(-n2ccnc2)c(NC(=O)c2ccc(-c3cccs3)nc2)c1",
    "label_value": "FALSE"
  },
  {
    "molecule": "CCN(Cc1cccnc1)c1cncc(-c2nc3ccccc3s2)c1",
    "label_value": "FALSE"
  },
  {
    "molecule": "CS(=O)(=O)N(Cc1c[nH]cn1)c1ccc(-c2ccc(F)cc2)cc1F",
    "label_value": "TRUE"
  },
  {
    "molecule": "CS(=O)(=O)N(Cc1cccnc1)c1ccc(-c2ccc(F)cc2)cc1F",
    "label_value": "FALSE"
  },
  {
    "molecule": "O=C(NCCc1cnc[nH]1)c1cnc(-c2ccccc2)cn1",
    "label_value": "TRUE"
  },
  {
    "molecule": "O=C(C1CC1)N(Cc1cccnc1)c1cc(F)cc(-c2nc3ccccc3s2)c1",
    "label_value": "FALSE"
  },
  {
    "molecule": "CCN(c1ccccc1)S(=O)(=O)c1ccc(NC(=O)CN(C)C2CCN(C)CC2)c(Cl)c1.Cl",
    "label_value": "FALSE"
  }
]

----------
test_details: DNDI: Lipophilicity (gLogD) at pH 7.4
condition_description: buffer, pH 7.4, logD

[
  {
    "molecule": "CCN(Cc1cccnc1)c1ccc(-c2ccc(F)cc2)cc1F",
    "modifier": ">",
    "chromatographic logD": 4.5
  },
  {
    "molecule": "CC(=O)N(Cc1cccnc1)c1ccc(-c2nc3ccccc3s2)cc1",
    "modifier": ">",
    "chromatographic logD": 3.94
  },
  {
    "molecule": "CCN(Cc1c[nH]cn1)c1ccc(-c2nc3ccccc3s2)cc1",
    "modifier": "=",
    "chromatographic logD": 3.4
  },
  {
    "molecule": "CCN(CC)S(=O)(=O)c1ccc(-n2ccnc2)c(NC(=O)c2cnc(-c3ccccc3)nc2)c1",
    "modifier": "=",
    "chromatographic logD": 3.2
  },
  {
    "molecule": "CCN(Cc1cnc[nH]1)c1cc(F)cc(-c2nc3ccccc3s2)c1",
    "modifier": "=",
    "chromatographic logD": 4.67
  },
  {
    "molecule": "CO/N=C(\\C)c1ccc(-n2ccnc2)c(NC(=O)c2sc(-c3ccccc3)nc2C)c1",
    "modifier": "=",
    "chromatographic logD": 3.5
  },
  {
    "molecule": "CN(CC(O)COc1ccc2cc(Br)ccc2c1)C1CCCCC1 (stereo unspecified)",
    "modifier": "=",
    "chromatographic logD": 3.6
  },
  {
    "molecule": "CCS(=O)(=O)N(Cc1cccnc1)c1cncc(-c2nc3ccccc3s2)c1",
    "modifier": "=",
    "chromatographic logD": 3.19
  },
  {
    "molecule": "O=C(Nc1ccccc1-n1ccnc1)c1cnc(-c2ccccc2)nc1",
    "modifier": "=",
    "chromatographic logD": 2.4
  },
  {
    "molecule": "Cc1ccc(-n2ccnc2)c(NC(=O)c2cnc(-c3ccccc3)s2)c1",
    "modifier": "=",
    "chromatographic logD": 3
  },
  {
    "molecule": "CCOC(COc1ccc2cc(Br)ccc2c1)Cn1ccnc1.O=CO (stereo unspecified)",
    "modifier": "=",
    "chromatographic logD": 4.5
  }
]

----------
test_details: in vitro
condition_description: human, microsomes
A collection of molecules and their measured microsomal CLint
measured_parameter: microsomal CLint (µL/min/mg)

[
  {
    "smiles": "CS(=O)(=O)N(Cc1cccnc1)c1ccc(-c2ccc(F)cc2)cc1F",
    "measured_parameter": "microsomal CLint",
    "display_unit": "µL/min/mg",
    "recorded_value": 218
  },
  {
    "smiles": "N#Cc1ccc(-n2ccnc2)c(NC(=O)c2cnc(-c3ccccc3)nc2)c1",
    "measured_parameter": "microsomal CLint",
    "display_unit": "µL/min/mg",
    "recorded_value": 15
  },
  {
    "smiles": "CCN(Cc1cccnc1)c1cncc(-c2nc3ccccc3s2)c1",
    "measured_parameter": "microsomal CLint",
    "display_unit": "µL/min/mg",
    "recorded_value": 414
  },
  {
    "smiles": "CO/N=C(\\C)c1ccc(-n2ccnc2)c(NC(=O)c2cnc(-c3ccccn3)s2)c1",
    "measured_parameter": "microsomal CLint",
    "display_unit": "µL/min/mg",
    "recorded_value": 20
  },
  {
    "smiles": "CS(=O)(=O)N(Cc1cnc[nH]1)c1ccc(-c2nc3ccccc3s2)cc1",
    "measured_parameter": "microsomal CLint",
    "display_unit": "µL/min/mg",
    "recorded_value": 55
  },
  {
    "smiles": "CC(=O)N(Cc1c[nH]cn1)c1ccc(-c2nc3ccccc3s2)cc1",
    "measured_parameter": "microsomal CLint",
    "display_unit": "µL/min/mg",
    "recorded_value": 14
  },
  {
    "smiles": "CCOC(=O)c1ccc(-n2ccnc2)c(NC(=O)c2cnc(-c3ccccc3)nc2)c1",
    "measured_parameter": "microsomal CLint",
    "display_unit": "µL/min/mg",
    "recorded_value": 11
  },
  {
    "smiles": "O=C(NCCc1cnc[nH]1)c1ccc2cc(Br)ccc2c1",
    "measured_parameter": "microsomal CLint",
    "display_unit": "µL/min/mg",
    "recorded_value": 16.5
  },
  {
    "smiles": "O=C(Nc1ccccc1-n1ccnc1)c1cnc(-c2ccccc2)nc1",
    "measured_parameter": "microsomal CLint",
    "display_unit": "µL/min/mg",
    "recorded_value": 18
  },
  {
    "smiles": "CO/N=C(\\C)c1ccc(-n2ccnc2)c(NC(=O)c2ccc(-c3ccccc3)cc2)c1",
    "measured_parameter": "microsomal CLint",
    "display_unit": "µL/min/mg",
    "recorded_value": 30
  }
]
